Values were extracted from ChEMBL document CHEMBL1134972.

- Protocol description: Cmax in rat
- Type: ADME, organism-based
- Condition set: in vivo
# key: entry, value: Cmax
The reply should contain only the number, in µM.

CC[C@]1(C)OC(=O)C(OC(C)C)=C1c1ccc(S(C)(=O)=O)cc1    1.7

Proceed to the following item.
Challenge: Entry under review: "CC(C)OC1=C(c2ccc(S(C)(=O)=O)cc2)C(C)(C)OC1=O" . Reported Cmax?
Response given: 15

====

- Protocol description: Bioavailability in rat
- Format: ADME, organism-based
- Condition set: in vivo
Readout label: bioavailability (%)
Express your answer in %, writing the number without its unit.

Challenge: I have this compound here, "CC[C@]1(C)OC(=O)C(OC(C)C)=C1c1ccc(S(C)(=O)=O)cc1" , and I need its recorded bioavailability.
Response given: 100

====

- Test system: Rattus norvegicus
- Protocol description: Antiinflammatory activity by using Rat paw edema assay
- Type: functional
Readout label: ED50 (mg/kg)
Write down the numeric answer in mg/kg and omit the unit.

Recorded results for 2 compounds are shown here.
CC[C@]1(C)OC(=O)C(OC(C)C)=C1c1ccc(S(C)(=O)=O)cc1    1.2
CC(C)OC1=C(c2ccc(S(C)(=O)=O)cc2)C(C)(C)OC1=O    0.8

Please look at the following compound next.
Challenge: What does the data say about its ED50? Entry: CS(=O)(=O)c1ccc(C2=C(c3ccccc3)C(=O)OC2)cc1 [ROFECOXIB]
Response given: 1.5
